Entries and their Signaling Assay, hMerTK with Gas6, pSTAT1 IC50 (nM) values follow.
- Study target: T1, Human MerTK on hMerTK-expressing cells (human, UniProt Q12866 21-999)
- T1 sequence: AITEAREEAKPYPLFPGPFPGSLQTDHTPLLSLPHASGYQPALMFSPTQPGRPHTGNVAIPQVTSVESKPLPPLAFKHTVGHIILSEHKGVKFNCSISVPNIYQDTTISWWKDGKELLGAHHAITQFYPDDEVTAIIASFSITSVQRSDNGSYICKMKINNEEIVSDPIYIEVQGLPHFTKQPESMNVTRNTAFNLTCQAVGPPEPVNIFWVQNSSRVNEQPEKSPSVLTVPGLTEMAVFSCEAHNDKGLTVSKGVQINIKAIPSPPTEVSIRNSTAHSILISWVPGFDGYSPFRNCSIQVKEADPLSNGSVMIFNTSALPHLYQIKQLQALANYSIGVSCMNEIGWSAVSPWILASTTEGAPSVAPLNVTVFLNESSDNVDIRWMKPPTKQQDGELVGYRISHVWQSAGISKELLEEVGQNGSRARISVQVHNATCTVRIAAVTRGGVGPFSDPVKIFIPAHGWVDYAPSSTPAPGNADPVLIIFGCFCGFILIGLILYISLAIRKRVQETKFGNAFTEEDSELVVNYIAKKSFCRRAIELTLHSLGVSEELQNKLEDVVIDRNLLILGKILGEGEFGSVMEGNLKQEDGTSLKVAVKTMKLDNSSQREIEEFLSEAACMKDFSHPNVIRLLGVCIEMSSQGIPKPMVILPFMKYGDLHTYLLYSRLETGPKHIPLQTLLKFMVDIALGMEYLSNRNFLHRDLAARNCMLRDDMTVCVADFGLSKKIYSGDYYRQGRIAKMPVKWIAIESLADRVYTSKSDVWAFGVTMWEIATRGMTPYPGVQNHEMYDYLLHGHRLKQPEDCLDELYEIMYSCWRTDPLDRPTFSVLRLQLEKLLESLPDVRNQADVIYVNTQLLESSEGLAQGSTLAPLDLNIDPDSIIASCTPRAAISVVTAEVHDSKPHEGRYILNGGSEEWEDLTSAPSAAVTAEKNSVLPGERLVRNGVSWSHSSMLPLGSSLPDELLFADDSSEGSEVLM
- Measurement protocol: cell-based or functional assay
Give the quantity in nM, number only.

-- ask # Signaling Assay, hMerTK with Gas6, pSTAT1 IC50 (nM) lookup, item HuMAb 1B4 (antibody, human IgG1, kappa, V domains shown, Human anti-hMerTK mAb, Bin 1) VH: QLQLQESGPGLVKPSETLSLTCAVSGYSISSGNYWGWIRQSPGKGLEWIGSVDHSGSTYYSPSLKSRVTISVDTSKNQFSLKLNSVTAADTADYYCARNTMIRGVMDWFDPWGQGTLVTVSS VL: AIQLTQSPSSLSASVGDRVTITCRASQGISSALAWYQQKPGKAPKVLIYDASSLESGVPSRFSGSGSGTDFTLTISSLQPEDFATYYCQQFRSYPTFGQGTKVEIKR
-- reply 0.33

-- ask # Signaling Assay, hMerTK with Gas6, pSTAT1 IC50 (nM) lookup, item HuMAb 8N42 (antibody, V domains shown, Human anti-hMerTK mAb, Bin 1) VH: QVQLQQWGAGLLKPSETLSLTCAVYGGSFSIYYWSWIRQPPGKGLELIGEINDEGNTNYNPSLKSRVTISVDTSKNQFSLKLSSVTAADTAVYYCARGGTGDIHAFDIWGQGTMVTVSS VL: DIQMTQSPSSLSASVGDRVTITCRASQGISKWLAWYQQKPEKAPKSLIYAASSLQSGVPSRFSGSGSGTDFTLTISSLQPEDFATYYCQQYNSYPWTFGQGTKVEIKR
-- reply 0.572

-- ask # Signaling Assay, hMerTK with Gas6, pSTAT1 IC50 (nM) lookup, item Humanized MAb 2L105 (antibody, human IgG1, lambda, V domains shown, Humanized variant of moMAb 2D9, Bin 2) VH: QVTLKESGPVLVKPTETLTLTCTVSGISLSSFAISWIRQPPGKALEWLAVIWTGGGTDYNSALKSRLTISKDTSKSQVVLTMTNMDPVDTATYYCASHWYLDVWGQGTTVTVSS VL: QTVVTQEPSFSVSPGGTVTLTCRSSTGAVSTSNYANWVQQTPGQAPRGLIGGANSRAPGIPDRFSGSILGNKAALTITGAQADDESDYYCALWFSNHWVFGGGTKLTVLG
-- reply 1.37
